Exercise: state measured TGI for each of the compounds provided.
# System: SF-268 CNS
# assay_name: NCI tumour cell line growth inhibition, 48 h

Record excerpt, results attached:
CCc1nc(N)nc(N)c1-c1ccc(N(C)Cc2ccccc2)c([N+](=O)[O-])c1; 37.9 µM
O=C(OCC1CC(C2(O)CCCCC2)C(=O)O1)c1ccccc1 (centres undefined); > 100 µM
CC1OC(OC2C(O)C(OCCc3ccc(O)c(O)c3)OC(CO)C2OC(=O)/C=C/c2ccc(O)c(O)c2)C(O)C(O)C1O (centres undefined); > 100 µM
COC(=O)/C(=N\Nc1nc(=S)[nH]n1N)C(C#N)c1ccc(Cl)cc1 (centres undefined); > 100 µM
N#Cc1ccc(O)c(C2=NCC(c3ccc(-c4ccccc4)cc3)O2)c1 (centres undefined); 16.1 µM
COc1c(N2CCCCC2)c2c(=O)c3ccccc3oc2c2c3ccccc3n(C)c12; > 100 µM

# batch: return TGI for each of the 3 compounds below
1. COc1cc2c(c(OC)c1)C(=O)C(=O)C(CC1(C)OCCCO1)=C2
2. O=S1(=O)OCCOS(=O)(=O)C1(Br)Br
3. Cc1nc2c(n1Cc1ccc(F)cc1)C(=O)c1ccccc1C2=O

["30.1 µM", "> 100 µM", "> 100 µM"]

For each of the compounds below, state TGI.
1. CCOC(OCC)[C@@H]1C[C@@H]2N(O[C@H](OC3CCCC3(c3ccccc3)c3ccccc3)[C@H](OC(C)=O)[C@@]2(CC)Cc2ccc(OC)c(OC)c2)O1 (some centres undefined)
2. CCCCCCCCCCCCSC1=CC(=O)C=CC1=O

> 100 µM
10.4 µM

For each of the items listed, what is its TGI?
1. NCCCC(N)(C(=O)O)C(F)F (centres undefined)
2. C/C(CC(=O)Nc1cccc([N+](=O)[O-])c1)=N/NC(N)=S
3. C=C1C(=O)O[C@H]2C1C[C@H](O)/C(C)=C/CC[C@@]1(C)O[C@H]21 (some centres undefined)
4. COc1cc(C2SCC(=O)N2c2ccc(Cl)cc2)cc(OC)c1OC (centres undefined)
5. Cc1cc(S(=O)(=O)Nc2nnc3c(Cl)cc(C(F)(F)F)cn23)c(S)cc1Cl
6. COc1ccc(C(=O)/C=C/c2c(C(F)(F)F)nc3ccccn23)cc1OC
7. O=[N+]([O-])c1ccc(C2NC(=S)NC3c4cc([N+](=O)[O-])ccc4CCCC23)cc1 (centres undefined)

1: > 5000 µM; 2: > 100 µM; 3: 74.5 µM; 4: > 100 µM; 5: > 100 µM; 6: > 24.7 µM; 7: > 100 µM

State recorded TGI for all listed compounds.
1. Cc1ccc(C(CCO)CCO)nc1
2. Cn1c2ccccc2c(=NNc2ccc(S(=O)(=O)N=C(N)N)cc2)c2ccccc21
3. CCCCCC1CC=CC(NC(=O)OCc2ccccc2)C1/C=C/CCCC1OCCO1 (centres undefined)
4. CC[C@@]1(O)C(=O)OCc2c1cc1n(c2=O)Cc2cc3cccc(N)c3nc2-1
5. CC(C)c1ccc(C(O)(C(=O)O)c2ccc(C(C)C)cc2)cc1

1: > 100 µM; 2: 22.1 µM; 3: > 100 µM; 4: > 100 µM; 5: > 100 µM

Okay, here is my list. What is TGI for each of these?
1. CC(C)OP(=O)(OC(C)C)/C(=N/Nc1ccc([N+](=O)[O-])cc1)NNC(=O)c1ccccc1
2. Cc1cc(N(CCC#N)CCC#N)ccc1/C=C(\N=[N+]=[N-])C(=O)NC(=O)COc1ccccc1

> 100 µM
> 100 µM

List the reported TGI of each compound below.
1. CCCCCC1CC(C(C)=O)CN1c1ccc(F)cc1 (centres undefined)
2. Cc1cnc(-c2ccc(-c3ccc(NC(=O)Nc4cccc(C(F)(F)F)c4)cc3F)c3c2C(=O)NC3)[nH]1
3. Cc1ccc(/C=C2\CCS(=O)(=O)c3ccccc3C2=O)cc1
4. CC(c1ccccc1)n1c2ccccc2c2c(N)ncnc21 (centres undefined)

1. > 100 µM
2. > 48.1 µM
3. 51.6 µM
4. 43.5 µM

Quick request: TGI for each listed item, please.
1. CCOC(=O)C1=C(C)C2C3C(=O)OC(=O)C3C1(C)C1C(=O)OC(=O)C21 (centres undefined)
2. CC(Oc1ccc2c(=O)cc(-c3ccccc3)oc2c1)C(=O)O (centres undefined)
3. O=C(CC1(O)C(=O)Nc2c(Cl)cc(Cl)cc21)c1ccc([N+](=O)[O-])cc1 (centres undefined)
4. CCOC(=O)Cc1ccc(Nc2nc3cc(F)c(F)cc3nc2C(=O)OCC)cc1
5. Cn1c2ccccc2c2c(=O)n(CCCC(=O)NCCc3cnc[nH]3)c3c(-c4ccccc4)nnn3c21

1. > 100 µM
2. > 100 µM
3. > 100 µM
4. > 100 µM
5. 31.6 µM
